Listing of recorded AUC(0-t) by entry.
assay: PK parameters after bid (twice a day) administration; assay type: in vivo; settings: in vivo, po, 5 mg/kg, 5 mg/kg PO (10 mg/kg/day), read-out: AUC(0-12 h)
Kindly answer with a numeric value in µM·h, unit omitted.

>  <molecule>
CN1CCN(Cc2ccc(-c3cnc(N4CCOC(Cn5nnc6ncc(-c7cnn(C)c7)nc65)C4)nc3)cc2)CC1 (centres unmarked) [Chemical Formula 1]

>  <AUC(0-t), µM·h>
2.44

$$$$

Shifting focus to the molecule that follows.
Short answer for CN1CCN(Cc2ccc(-c3cnc(N4CCOC(Cn5nnc6ncc(-c7cnn(C)c7)nc65)C4)nc3)cc2)CC1.O=C(O)/C=C\C(=O)O (centres unmarked) [Chemical Formula 2] : AUC(0-t) was 3.43

----------
test: PK parameters in plasma after single administration; type: in vivo, Wistar rats; conditions: Wistar, rat, plasma, 5 mg/kg PO
experimental.readout: Cmax (nM)
The response must be a number in nM with no trailing unit.

>  <molecule>
CN1CCN(Cc2ccc(-c3cnc(N4CCOC(Cn5nnc6ncc(-c7cnn(C)c7)nc65)C4)nc3)cc2)CC1 (centres unmarked) [Chemical Formula 1]

>  <unit.text>
nM

>  <Cmax>
343

$$$$

Shift focus to the following entry.
molecule CN1CCN(Cc2ccc(-c3cnc(N4CCOC(Cn5nnc6ncc(-c7cnn(C)c7)nc65)C4)nc3)cc2)CC1.O=C(O)/C=C\C(=O)O (centres unmarked) [Chemical Formula 2] , Cmax observed: 246

----------
experiment: PK parameters after bid (twice a day) administration; format: in vivo; details: in vivo, iv, 5 mg/kg, 5 mg/kg IV (10 mg/kg/day), read-out: AUC(0-12 h)
experimental.readout: AUC(0-t) (µM·h)
Answer format: numeric, µM·h implied, no suffix.

>  <compound>
CN1CCN(Cc2ccc(-c3cnc(N4CCOC(Cn5nnc6ncc(-c7cnn(C)c7)nc65)C4)nc3)cc2)CC1 (centres unmarked)

>  <experimental.readout>
AUC(0-t)

>  <unit.text>
µM·h

>  <value>
5.36

$$$$

Below: the item to evaluate.
AUC(0-t) reading for CN1CCN(Cc2ccc(-c3cnc(N4CCOC(Cn5nnc6ncc(-c7cnn(C)c7)nc65)C4)nc3)cc2)CC1.O=C(O)/C=C\C(=O)O (centres unmarked) : 5.32

----------
test: PK parameters after bid (twice a day) administration; type: in vivo; conditions: in vivo, po, 20 mg/kg, 20 mg/kg PO (40 mg/kg/day), read-out: AUC(0-12 h)
Parameter: AUC(0-t). Scope: all listed entries.
Lab book: enter the figure in µM·h, no units written.

>  <compound>
CN1CCN(Cc2ccc(-c3cnc(N4CCOC(Cn5nnc6ncc(-c7cnn(C)c7)nc65)C4)nc3)cc2)CC1.O=C(O)/C=C\C(=O)O (centres unmarked) [Chemical Formula 2]

>  <AUC(0-t), µM·h>
12.2

$$$$

Measured AUC(0-t), CN1CCN(Cc2ccc(-c3cnc(N4CCOC(Cn5nnc6ncc(-c7cnn(C)c7)nc65)C4)nc3)cc2)CC1 (centres unmarked) [Chemical Formula 1] : 7.9

----------
assay: thermodynamic solubility in formulation vehicles (phosphate buffer pH 7.4 with excipients); assay type: physicochemical; settings: PBS formulation vehicle with 50% Transcutol, pH 7.4, aqueous with cosolvent or surfactant or cyclodextrin, thermodynamic from solid; PBS vehicle containing 50% Transcutol, 24 hours at room temperature
experimental.readout: solubility at 24 h

>  <compound>
CN1CCN(Cc2ccc(-c3cnc(N4CCOC(Cn5nnc6ncc(-c7cnn(C)c7)nc65)C4)nc3)cc2)CC1.O=C(O)/C=C\C(=O)O (centres unmarked)

>  <solubility at 24 h>
> 3500 µg/mL

$$$$

Data point: CN1CCN(Cc2ccc(-c3cnc(N4CCOC(Cn5nnc6ncc(-c7cnn(C)c7)nc65)C4)nc3)cc2)CC1 (centres unmarked) ; solubility at 24 h = ≥ 1000 µg/mL

From: patent US11987582B2
